- experimentalTarget: FGF-2 (Homo sapiens, UniProt P09038)
- Sequence (P09038 134-288): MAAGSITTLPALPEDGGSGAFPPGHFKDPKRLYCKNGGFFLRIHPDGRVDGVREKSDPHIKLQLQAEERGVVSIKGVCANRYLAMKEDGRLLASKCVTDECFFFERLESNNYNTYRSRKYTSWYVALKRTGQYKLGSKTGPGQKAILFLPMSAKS
- methodNotes: FGF-2 induced sprouting of HUVEC, spheroid-based cellular angiogenesis assay
- conditionsUsed: FGF-2 25 ng/mL preincubated with compound, 24 h
Measured pIC50 by item
Formally, pIC50 is defined as -log10 of the concentration c, with c in mol/L.

Guide cases for pIC50, answers given:
O=C(O)c1cc(O)c(CNCc2cc(O)c(C(=O)O)cc2O)cc1O [IIIc-056a] :: 4.46
O=C(O)Cc1ccc(NC(=O)c2cc(O)c(C(=O)O)cc2O)cc1 [Ia-032a] :: 4.04
O=C(O)Cc1cc(O)c(C(=O)Nc2ccccc2C(=O)O)cc1O [IIIa-001a] :: 5.00
COC(=O)c1cc(NC(=O)c2cc(O)c(C(=O)Nc3ccc(O)c(C(=O)OC)c3)cc2O)ccc1O [Ic-007a-E2] :: 4.31

Moving on to the next compound.
Query: Look up pIC50: O=C(O)c1cc(O)c(C(=O)Nc2c(C(=O)O)cccc2C(=O)O)cc1O [Ia-013a]
Reply: 4.74
